# protocol-details: inhibition of endothelial tube formation, primary screen, imaging, VEGF stimulated, CD31 staining, tube area, NPC library (AID 1117340)
# test-conditions: VEGF-stimulated ADSC/ECFC co-culture, at 10 µM, stronger effect = higher value
Each item that follows carries a reported tube area decrease.
Kindly provide the numeric value in % only, without the unit symbol.

[
  {
    "compound": "C[C@H]1COc2c(C3(N)CC3)c(F)cc3c(=O)c(C(=O)O)cn1c23",
    "value-kind": "tube area decrease",
    "measurement": 2.8
  },
  {
    "compound": "O=C(O)CCNC(=O)c1ccc(N=Nc2ccc(O)c(C(=O)O)c2)cc1",
    "value-kind": "tube area decrease",
    "measurement": 11.5
  },
  {
    "compound": "CC(=O)[C@]1(O)Cc2c(O)c3c(c(O)c2[C@@H](O[C@H]2C[C@H](N)[C@H](O)[C@H](C)O2)C1)C(=O)c1ccccc1C3=O",
    "value-kind": "tube area decrease",
    "measurement": 85.6
  },
  {
    "compound": "Nc1ccc(S(=O)(=O)NC(=O)c2ccccc2)cc1",
    "value-kind": "tube area decrease",
    "measurement": -16.9
  }
]

Q) Using the record for CCN(CC)C(C)CN1c2ccccc2Sc2ccccc21 (stereo not given) , state its measured tube area decrease.
A) 25

Q) Using the record for "CC(=O)Oc1c(C)c(C)c2c(c1C)CC[C@@](C)(CCC[C@H](C)CCC[C@H](C)CCCC(C)C)O2" , state its measured tube area decrease.
A) -15.2

Q) Using the record for "O=C1c2ccccc2C(=O)c2c1ccc(O)c2O" , state its measured tube area decrease.
A) -9.9

Q) Using the record for "NC(=O)c1ncn([C@@H]2O[C@H](CO)[C@@H](O)[C@H]2O)c1O" , state its measured tube area decrease.
A) 3.8

Q) Using the record for "OCc1cccnc1" , state its measured tube area decrease.
A) -10

Q) Using the record for "Cc1nnc(SCC2=C(C(=O)O)N3C(=O)[C@@H](NC(=O)Cn4cnnn4)[C@H]3SC2)s1" , state its measured tube area decrease.
A) 10.5

----------
# protocol-details: growth inhibition, single agents and combos, HTB85, cell-based, BGB or cisplatin IC20 combos, synergistic combos for chromothripsis tumors (AID 1671453);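 also: cells exposed for 96 hours before readout; 0% = vehicle DMSO and 100% = high DMSO killing control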
# test-conditions: HTB85 osteosarcoma cells, drug combinations, single agent, at 5 µM, stronger effect = higher value
# if value of inhibition reaches 20%, tag criterion met; if it stays below, tag criterion not met

Use these answered entries as a reference point.
[
  {
    "molecule": "NC(=O)NO",
    "discrete-label": "criterion not met"
  },
  {
    "molecule": "Cc1oncc1C(=O)Nc1ccc(C(F)(F)F)cc1",
    "discrete-label": "criterion met"
  },
  {
    "molecule": "O=c1oc2c(O)c(O)cc3c(=O)oc4c(O)c(O)cc1c4c23",
    "discrete-label": "criterion met"
  }
]

Q) Reported inhibition at or above 20%? "Nc1nc2c(ncn2COC(CO)CO)c(=O)[nH]1"
A) criterion met

Q) Reported inhibition at or above 20%? "Nc1nc(=S)c2[nH]cnc2[nH]1"
A) criterion met

Q) Reported inhibition at or above 20%? "CN(C)c1ccc(C(=C2C=CC(=[N+](C)C)C=C2)c2ccc(N(C)C)cc2)cc1"
A) criterion met

Q) Reported inhibition at or above 20%? "Nc1[nH]c(=O)ncc1F"
A) criterion not met

Q) Reported inhibition at or above 20%? CC(N)C12CC3CC(CC(C3)C1)C2 (centres undefined)
A) criterion not met

Q) Reported inhibition at or above 20%? "O=C(O)CCCCCCCC(=O)O"
A) criterion not met
